- test.protocol: amyloid nucleation score (Sup35N fusion, yeast selection) (log enrichment); library NNK3; higher = more nucleation; inactive = no reads after selection;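 further: zero at mode of non-aggregating sequences after 7 days selection at 30°C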
recorded.endpoint: amyloid nucleation score

Known results for substances:
Ask: Query (substance): VSMIKRLGHCGVLGGKTYRV ; field requested: amyloid nucleation score
Reply: -0.671

Ask: One more substance: NMHRNSSIRDRSVIRTWGMV
Reply: inactive

Ask: One more substance: RADSGGKCLLAELDGLSPYW
Reply: inactive

Ask: One more substance: HVVHYDMFHDGLSLWDQEAR
Reply: inactive

Ask: One more substance: VQSKMCVKYFWGRHTRHQLG
Reply: inactive

Ask: One more substance: SVAVRWKAYVMVLSEHSPRG
Reply: inactive

New cases:
Ask: Query (substance): QFCSSYWYQGTAYCLLPIAT ; field requested: amyloid nucleation score
Reply: inactive

Ask: One more substance: IKNYCIIYSETPGRNKCGLR
Reply: 1.01

Ask: One more substance: FAVQCWKAGVAKNYGMHFVC
Reply: inactive

Ask: One more substance: EMYGWINMIQWNLLCVSEII
Reply: inactive

Ask: One more substance: TEVPFRVSF
Reply: inactive

Ask: One more substance: LFRVSWMLGNKIDISKSIYR
Reply: inactive

The values you see were collected from the supplement of paper PMC12042874.
